Recorded abundance fitness by entry
B1: POU domain, class 4, transcription factor 1, residues 266 to 347; numbered along this chain, Q01851 (parent)
chain: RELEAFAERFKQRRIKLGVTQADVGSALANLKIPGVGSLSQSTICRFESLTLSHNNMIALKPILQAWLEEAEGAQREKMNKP

Variants of: B1
MEASUREMENT PROTOCOL: abundance fitness (aPCA) (normalised: wild type 0, dead -1); higher = more abundant; growth selection in yeast, the domain comes from the species named
CONDITION SUMMARY: Homo sapiens
// response body must contain only the number

Answered cases to consult:
   variant_string  value
0            T43M  0.037
1            N30A  0.028

For record "R76H" the listed abundance fitness is -0.003

For record "E70G" the listed abundance fitness is -0.061

For record "T43Y" the listed abundance fitness is -0.238

For record "E8F" the listed abundance fitness is -0.223
